Data credit: patent US20090318527A1

# System under test: UniProt P28335
# Sequence (P28335 33-458): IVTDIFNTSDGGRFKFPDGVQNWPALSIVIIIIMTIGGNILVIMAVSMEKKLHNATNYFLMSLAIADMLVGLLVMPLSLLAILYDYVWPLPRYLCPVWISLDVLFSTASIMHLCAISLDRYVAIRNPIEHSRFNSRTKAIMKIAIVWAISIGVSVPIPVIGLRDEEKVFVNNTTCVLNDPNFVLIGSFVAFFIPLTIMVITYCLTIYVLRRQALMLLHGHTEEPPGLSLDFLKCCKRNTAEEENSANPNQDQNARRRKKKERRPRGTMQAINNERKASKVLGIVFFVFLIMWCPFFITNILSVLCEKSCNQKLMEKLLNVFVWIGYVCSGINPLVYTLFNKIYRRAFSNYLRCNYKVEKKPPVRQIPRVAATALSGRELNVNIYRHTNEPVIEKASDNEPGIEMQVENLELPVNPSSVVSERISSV
# Test method notes: Intracellular calcium flux assay, HEK 293 cells stably expressing 5-HT2C;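 further: calcium dye fluorescence read on FLIPR Tetra as peak signal above baseline within 60 s of compound addition, seven concentrations from 10 pM to 10 µM, each in triplicate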
# Condition summary: at least three independent experiments, entries marked a (42, 50, 51, 52) single measurements, read-out: 5-HT2C mean EC50 ± SD
Attribute: EC50
Field format: number, assumed nM, no unit text.

// known answers, use as guide
# Molecule, Observed measurement
data = [
    ("CCn1cc(CCN(C)C)c2c(OC)cc(F)cc21.Cl [Compound 34, hydrochloride]", 24),
    ("CCn1cc(CCN(C)C)c2cc(F)c(O)cc21 [Compound 83]", 221),
    ("CCCn1cc(CCN(C)C)c2c(OC)ccc(F)c21 [Compound 28]", 76),
    ("COc1cc(F)cc2c1c(CCN(C)C)cn2C.Cl [Compound 31, hydrochloride]", 9.9),
    ("CCCn1cc(CCN(C)C)c2c(OCC)cc(F)cc21.Cl [Compound 38, hydrochloride]", 1250),
]

Documented EC50 of CCCOc1ccc(F)c2c1c(CCN(C)C)cn2CCC [Compound 30] : 858

# molecule CCn1cc(CCN(C)C)c2c(OC)c(F)ccc21.Cl [Compound 41, hydrochloride] ; its EC50 = 1.4

Value of measured EC50 for the entry CCCn1cc(CCN(C)C)c2c(OC)cc(F)cc21.Cl [Compound 37, hydrochloride] : 354

Measured EC50, COc1ccc(Br)c2c1c(CCN(C)C)cn2C.Cl [Compound 73, hydrochloride] : 274

Item: CN(C)CCc1cn(C)c2c(F)ccc(F)c12.Cl [Compound 65, hydrochloride] | EC50: 16

For record CN(C)CCc1cn(C)c2c(F)ccc(OCc3ccccc3)c12 [Compound 50] the listed EC50 is 282
